Quantity: melting point

1) C=Cc1cc2c(cc1C(F)(F)F)NC(=O)CC(c1cccc(-c3ccnc(C)c3)c1)=N2; 200 to 201 °C
2) Cc1nccc(-c2cccc(C3=Nc4ccc(C(F)(F)F)cc4NC(=O)C3)c2)c1C; 200 °C
3) O=C1CC(c2cccc(-c3cccnc3)c2)=Nc2ccc(C#Cc3ccc(F)cc3)cc2N1; 228 to 230 °C
4) O=C1CC(c2cccc(-c3ccncn3)c2)=Nc2cc(Cl)c(Cl)cc2N1; 234 to 237 °C
5) Cc1cc2c(cc1C(F)(F)F)NC(=O)CC(c1cccc(-c3ccc(C4CC4)nc3)c1)=N2; 220 to 221 °C
6) CN(C)c1cc2c(cc1C(F)(F)F)NC(=O)CC(c1cccc(-c3ccncn3)c1)=N2; 209 to 210 °C

----------
Quantity: melting point

1) CCOc1cc2c(cc1C(F)(F)F)NC(=O)CC(c1cccc(-c3ccnc(C4CCCC4)c3)c1)=N2 [Example 353]; 192 to 193 °C
2) Cc1ccncc1-c1cccc(C2=Nc3cc(OCC(F)(F)F)c(C(F)(F)F)cc3NC(=O)C2)c1 [Example 232]; 198 to 200 °C
3) O=C1CC(c2cccc(-c3cccnc3)c2)=Nc2cc(Cl)c(C(F)(F)F)cc2N1 [Example 183]; 226 to 227 °C
4) O=C1CC(c2cccc(-c3ccccn3)c2)=Nc2cc(F)c(Cl)cc2N1 [Example 52]; 197 to 198 °C
5) Cc1ncccc1-c1cccc(C2=Nc3cc(N(C)C)c(C(F)(F)F)cc3NC(=O)C2)c1 [Example 13]; 229 to 230 °C
6) Cc1cc2c(cc1Cl)NC(=O)CC(c1cccc(-c3ccccn3)c1)=N2 [Example 45]; 222 °C (dec.)

----------
Quantity: melting point

1) O=C1CC(c2cccc(-c3ccnc(N4CCOCC4)c3)c2)=Nc2cc(OCC(F)(F)F)c(C(F)(F)F)cc2N1 [Example 386]; 189 to 190 °C
2) Cc1ccncc1-c1cccc(C2=Nc3ccc(C(F)(F)F)cc3NC(=O)C2)c1 [Example 226]; 220 to 221 °C
3) CCc1cc2c(cc1C(F)(F)F)NC(=O)CC(c1cccc(-c3ccnc(C#N)c3)c1)=N2 [Example 210]; 210 to 217 °C
4) Cc1cc(-c2cccc(C3=Nc4cc(C5CC5)c(C(F)(F)F)cc4NC(=O)C3)c2)ccn1 [Example 350]; 205 to 211 °C
5) COc1ccc2c(c1)N=C(c1cccc(-c3cccnc3)c1)CC(=O)N2 [Example 55]; 219 °C (dec.)
6) COCCOc1cc2c(cc1C(F)(F)F)NC(=O)CC(c1cccc(-c3cc(C)nc(C)c3)c1)=N2 [Example 243]; 213 to 214 °C
7) N#Cc1cc(-c2cccc(C3=Nc4cc(OCC(F)(F)F)c(Cl)cc4NC(=O)C3)c2)ccn1 [Example 203]; 224 to 225 °C
8) Cc1cc2c(cc1Cl)NC(=O)CC(c1cccc(-c3cc(N(C)C)ncn3)c1)=N2 [Example 333]; 226 to 228 °C
9) Cc1cc(-c2cccc(C3=Nc4cc(C)c(C(F)(F)F)cc4NC(=O)C3)c2)nc(N)n1 [Example 315]; 248 to 250 °C
10) CNc1nc(C)cc(-c2cccc(C3=Nc4cc(C)c(Cl)cc4NC(=O)C3)c2)n1 [Example 319]; 235 to 237 °C
11) Cc1ccc(-c2cccc(C3=Nc4ccc(F)cc4NC(=O)C3)c2)cn1 [Example 11]; 225 to 226 °C
12) Cc1nccc(-c2cccc(C3=Nc4cc(C)c(C(F)(F)F)cc4NC(=O)C3)c2)n1 [Example 301]; 230 to 232 °C
13) Cc1cc2c(cc1Cl)NC(=O)CC(c1cccc(-c3ccncn3)c1)=N2 [Example 297]; 242 to 247 °C
14) CCc1cc(C)c(-c2cccc(C3=Nc4cc(OCC(F)(F)F)c(C(F)(F)F)cc4NC(=O)C3)c2)cn1 [Example 256]; 145 to 160 °C
